Answer each item with its documented TGI.
# Tested on: SK-MEL-28 melanoma
# Assay Method Text: NCI tumour cell line growth inhibition, 48 h

Enquiry: GET /values?readout=TGI&system=SK-MEL-28 melanoma&item= CC1=C(C(=O)Nc2cccc(Cl)c2)C(c2ccccc2O)C(C(=O)Nc2cccc(Cl)c2)=C(C)N1
Return: 31.9 µM

Enquiry: GET /values?readout=TGI&system=SK-MEL-28 melanoma&item= O=C(NC1CCN(Cc2ccccc2)CC1)c1cc(-c2cccnc2)nc2ccc(Cl)cc12
Return: > 100 µM

Enquiry: GET /values?readout=TGI&system=SK-MEL-28 melanoma&item= CC1CC(=O)Nc2ccc(Cl)cc2N1C(=O)CN1CCC(CCCCN(C)C)CC1 (stereo not given)
Return: > 100 µM

Enquiry: GET /values?readout=TGI&system=SK-MEL-28 melanoma&item= O=c1oc2cc(O)ccc2c2[nH]c3cc(O)ccc3c12
Return: > 100 µM

Enquiry: GET /values?readout=TGI&system=SK-MEL-28 melanoma&item= CC(Oc1cc2oc(=O)cc(-c3ccccc3)c2cc1Cl)C(=O)O (stereo not given)
Return: > 100 µM

Enquiry: GET /values?readout=TGI&system=SK-MEL-28 melanoma&item= N=c1c2sc3nc4ccccc4n3c2ncn1Cc1ccccc1
Return: > 100 µM

Enquiry: GET /values?readout=TGI&system=SK-MEL-28 melanoma&item= C/C=C/CC(C(=O)OCC)(N(C)C(=O)OC(C)(C)C)S(=O)(=O)c1ccc(C)cc1 (stereo not given)
Return: > 100 µM

Enquiry: GET /values?readout=TGI&system=SK-MEL-28 melanoma&item= Cc1cc2c(cc1Cl)SC(N(c1ccccc1Cl)S(=O)(=O)c1ccc(Br)s1)=NS2(=O)=O
Return: 29.6 µM

Enquiry: GET /values?readout=TGI&system=SK-MEL-28 melanoma&item= CC(C)N(C(=O)C12C3C4C1C1C2C3C41C(=O)C(C)(C)C)C(C)C (stereo not given)
Return: > 100 µM

Enquiry: GET /values?readout=TGI&system=SK-MEL-28 melanoma&item= COc1cccc(N/C(C)=C2/CCOC2=O)c1
Return: > 10 µM

Enquiry: GET /values?readout=TGI&system=SK-MEL-28 melanoma&item= O=C(CCC(=O)Nc1ccccc1C(F)(F)F)N/N=C1\C(=N\NC(=O)CCC(=O)Nc2ccccc2C(F)(F)F)C(c2ccc3c(c2)OCO3)Oc2ccccc21 (stereo not given)
Return: > 100 µM

Enquiry: GET /values?readout=TGI&system=SK-MEL-28 melanoma&item= Cc1ccc2nc(NC(=O)C(=O)C(C(=O)c3ccc4ccccc4c3)C3OC(=O)c4ccccc43)sc2c1 (stereo not given)
Return: 19.3 µM

Enquiry: GET /values?readout=TGI&system=SK-MEL-28 melanoma&item= Nc1n[n+]([O-])c2cc([N+](=O)[O-])ccc2[n+]1[O-]
Return: > 100 µM

Enquiry: GET /values?readout=TGI&system=SK-MEL-28 melanoma&item= Oc1ccc(-c2c3ccccc3c(-c3ccc(O)cc3)c3ccccc23)cc1
Return: > 100 µM

Enquiry: GET /values?readout=TGI&system=SK-MEL-28 melanoma&item= O=C1CC(c2ccc(Cl)cc2)C2(C(=O)NC(=S)NC2=O)C(c2ccc(Cl)cc2)C1 (stereo not given)
Return: 30.6 µM

Enquiry: GET /values?readout=TGI&system=SK-MEL-28 melanoma&item= Cc1cc(S(=O)(=O)/N=C(\N)Nc2cccc(O)c2)c(SCc2ccccc2)cc1Cl
Return: 31 µM

Enquiry: GET /values?readout=TGI&system=SK-MEL-28 melanoma&item= COC(=O)[C@H](CNC(=O)/C=C/c1ccc(OC(C)=O)c(OC(C)=O)c1)NC(=O)/C=C/c1ccc(OC(C)=O)c(OC(C)=O)c1
Return: > 100 µM

Enquiry: GET /values?readout=TGI&system=SK-MEL-28 melanoma&item= CC1(C)OB(c2ccc(N(CCOS(C)(=O)=O)CCOS(C)(=O)=O)cc2)OC1(C)C
Return: > 83.7 µM

Enquiry: GET /values?readout=TGI&system=SK-MEL-28 melanoma&item= CCCC(=O)OCC1OC2OC(C)(C)OC2C2OC(C)(C)OC12 (stereo not given)
Return: > 100 µM

Enquiry: GET /values?readout=TGI&system=SK-MEL-28 melanoma&item= COc1ccc2c(c1)CC[C@@H]1[C@@H]2CC[C@]2(C)/C(=N/OCCN3CCCC3)CC[C@@H]12
Return: 2.82 µM

Enquiry: GET /values?readout=TGI&system=SK-MEL-28 melanoma&item= O=S(=O)(O)c1ccc2c(N=Nc3cccc4ccccc34)c(O)ccc2c1
Return: > 100 µM

Enquiry: GET /values?readout=TGI&system=SK-MEL-28 melanoma&item= CON(C)c1nc(N)c(C#N)c(C#N)c1C#N
Return: > 10 µM

Enquiry: GET /values?readout=TGI&system=SK-MEL-28 melanoma&item= CC(=O)C(N1CCCCC1)C(O)(C(F)(F)F)C(F)(F)F (stereo not given)
Return: > 100 µM

Enquiry: GET /values?readout=TGI&system=SK-MEL-28 melanoma&item= O/N=C1/CCCC/C1=C/C=C/c1ccccc1
Return: 10.2 µM

Enquiry: GET /values?readout=TGI&system=SK-MEL-28 melanoma&item= CCOC(=O)C1(CC(=O)O)CCCC1=O (stereo not given)
Return: > 100 µM

Enquiry: GET /values?readout=TGI&system=SK-MEL-28 melanoma&item= CCOC(=O)/C=C/n1c2ccccc2c(=O)c2cc(OC)ccc21
Return: > 100 µM

Enquiry: GET /values?readout=TGI&system=SK-MEL-28 melanoma&item= COc1ccc(C(=O)/C=C/c2sc(Cl)nc2Cl)cc1
Return: 8.17 µM

Enquiry: GET /values?readout=TGI&system=SK-MEL-28 melanoma&item= NC(Cc1ccc(O)cn1)C(=O)NC(C(=O)O)c1ccccc1 (stereo not given)
Return: > 100 µM

Enquiry: GET /values?readout=TGI&system=SK-MEL-28 melanoma&item= C#CCN(N=O)C(=O)NC(CCCCNC(=O)OCc1ccccc1)C(=O)OCc1ccccc1 (stereo not given)
Return: 77.6 µM

Enquiry: GET /values?readout=TGI&system=SK-MEL-28 melanoma&item= N#C/C(=C\c1ccc(O)c(O)c1)C(=O)NCc1ccc(C(F)(F)F)cc1
Return: 57 µM

Enquiry: GET /values?readout=TGI&system=SK-MEL-28 melanoma&item= COc1ccc(-c2nc(-c3ccc(OC)cc3)n(-c3ccccc3)n2)cc1
Return: > 100 µM

Enquiry: GET /values?readout=TGI&system=SK-MEL-28 melanoma&item= O=C(O)c1cc2ccccc2c(Cc2c(O)c(C(=O)O)cc3ccccc23)c1O
Return: > 100 µM

Enquiry: GET /values?readout=TGI&system=SK-MEL-28 melanoma&item= CC(=O)N[C@H](C)[C@@H](O)[C@@H](C)[C@@H]1OC(=O)/C=C/C=C(C)\C=C\[C@]2(C)C[C@@H](NS(C)(=O)=O)C=C[C@@H]2/C=C(C)/C=C/[C@H]1C
Return: > 43.5 µM

Enquiry: GET /values?readout=TGI&system=SK-MEL-28 melanoma&item= COc1ccccc1-n1cnc2c1NC(C)(C)N=C2C(N)=O
Return: > 100 µM

Enquiry: GET /values?readout=TGI&system=SK-MEL-28 melanoma&item= C[C@H]1CCC/C=C/C2CC(OC(=O)CN(C)C)CC2C(OC(=O)CN(C)C)/C=C/C(=O)O1 (stereo not given in full)
Return: > 100 µM

Enquiry: GET /values?readout=TGI&system=SK-MEL-28 melanoma&item= Cc1ccc(S(=O)(=O)NC(=O)C2S(=O)(=O)OCCOS2(=O)=O)cc1
Return: > 100 µM

Enquiry: GET /values?readout=TGI&system=SK-MEL-28 melanoma&item= COc1ccc(-n2cc(-c3cc(OC)c(OC)c(OC)c3)nc2SCc2ccc(Cl)cc2)cc1OC
Return: > 100 µM

Enquiry: GET /values?readout=TGI&system=SK-MEL-28 melanoma&item= C/C(=C1/N=C(c2cc([N+](=O)[O-])ccc2Cl)N(c2ccc(Br)cc2)C1=O)c1ccc(N(CCC#N)CCC#N)cc1C
Return: > 100 µM

Enquiry: GET /values?readout=TGI&system=SK-MEL-28 melanoma&item= Cc1ccc2nc(N)[nH]c(=O)c2c1Sc1ccncc1
Return: > 100 µM

Enquiry: GET /values?readout=TGI&system=SK-MEL-28 melanoma&item= c1ccc2c(c1)[nH]c1cnc3c4ncccc4[nH]c3c12
Return: > 100 µM

Reference for the values: PubChem BioAssay (NCI)
